Target: T1, human PD-L2 (full-length, on cells) (human, UniProt Q9BQ51 20-273)
T1 chain: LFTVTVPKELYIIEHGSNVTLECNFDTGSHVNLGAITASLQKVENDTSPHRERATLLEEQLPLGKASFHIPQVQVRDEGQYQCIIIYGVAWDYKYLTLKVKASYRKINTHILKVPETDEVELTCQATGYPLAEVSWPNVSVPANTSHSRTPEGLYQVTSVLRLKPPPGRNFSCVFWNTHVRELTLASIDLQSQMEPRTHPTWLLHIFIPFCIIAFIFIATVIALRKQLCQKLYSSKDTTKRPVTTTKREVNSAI
Test: FACS binding to CHO-K1 cells expressing human PD-L2
EXPERIMENTAL ENDPOINT: EC50 (nM)
Give bare numbers, in nM.

binder="10D1-G1 (antibody, V domains shown, Both formats under this entry) VH: QVQLQESGPGLVKPSGTLSLTCAVSGGSISSSYWWSWVRQPPGKGLEWIGEIFHIGSTNYNPSLRSRVTISVVKSKNQFSLNLNSVTAADTAVYFCARVSGGYGYFSGMDVWGQGTTVTVSS VL: DIQMTQSPSSLSASVGDRVTITCRASQGIRNDLGWYQQKPGKAPKRLIYGASSLQSGVPSRFSGSGSGTEFTLTISSLQPEDFATYYCLQHNSYPRTFGQGTKVEIK" number=0.37

Now for another entry.
Req: Please report the recorded EC50 for 10A9-D2 N31Q.LC (antibody, V domains shown, Optimized variant of 10A9-D2) VH: QVQLQESGPGLVKPSETLSLTCAVSGGSISSSYWWSWVRQPPGKGLEWVGEVFHVGVTNYNPSLKSRVTISVDKSKNQFSLKLTSVTAADTAVYYCARVTGTTGYYHGLDVWGQGTTVTVFS VL: DIQMTQSPSSLSASVGDRVTITCRASQGIRQDLGWYQQKPGKVPKRLIYAASSLQSGIPSRFSGSGSGTEFTLTISSLQPEDFATYYCLQHNNYPRTFGQGTKVEIK .
Resp: 0.32
